Test system: colorectal mucosa (epithelial tissue of the human colon reconstructed in 3D)
MEASUREMENT KIND: recovery Total

Example entries begin here.
CCC(=O)OCC(=O)[C@@]1(OC(=O)CC)[C@@H](C)C[C@H]2[C@@H]3CCC4=CC(=O)C=C[C@]4(C)[C@@]3(Cl)[C@@H](O)C[C@@]21C [BDP A, beclomethasone dipropionate] :: 149.81
CCC(=O)OCC(=O)[C@@]1(OC(=O)CC)[C@@H](C)C[C@H]2[C@@H]3CCC4=CC(=O)C=C[C@]4(C)[C@@]3(Cl)[C@@H](O)C[C@@]21C [BDP B, beclomethasone dipropionate] :: 133.53

[A] CCC(=O)OCC(=O)[C@@]1(OC(=O)CC)[C@@H](C)C[C@H]2[C@@H]3CCC4=CC(=O)C=C[C@]4(C)[C@@]3(Cl)[C@@H](O)C[C@@]21C [BDP C, beclomethasone dipropionate]
[B] CCC(=O)OCC(=O)[C@@]1(OC(=O)CC)[C@@H](C)C[C@H]2[C@@H]3CCC4=CC(=O)C=C[C@]4(C)[C@@]3(Cl)[C@@H](O)C[C@@]21C [BDP D, beclomethasone dipropionate]
Field: entry with larger recovery Total (options A / B ). Label of pick, please.
B
